- Tested on: SN12C renal
- Assay comment: NCI tumour cell line growth inhibition, 48 h
Assay readout: TGI

What value of TGI has been recorded for this entry: COc1ccc(N(C)S(=O)(=O)c2ccccc2)cc1 > 100 µM

Consider next the compound CC(=O)OC1CCN(C(=O)c2ccccc2)CC1CC1(c2cc3ccccc3[nH]2)OCCO1 (stereo not drawn) in the same way. > 100 µM

Consider next the compound O=[N+]([O-])C(Cl)C(Cl)C(Cl)=C(Cl)Cl (stereo not drawn) in the same way. > 57.7 µM

----------
- Test system: HCT-15 colon
- Assay comment: NCI tumour cell line growth inhibition, 48 h
Assay readout: TGI

Examples from the recorded data:
Molecule	Reported measurement
COc1ccc2c(c1)c(=O)c1ccccc1n2/C=C/C(=O)O	> 100 µM
COc1ccc(-c2[nH]c3ccccc3c2C=C(C#N)C#N)cc1	> 100 µM
CCc1n[nH]c(=S)n1/N=C\c1ccc(-c2ccccc2Cl)o1	83.3 µM

Value wanted: TGI (HCT-15 colon) of entry COc1cc2nc(-c3cnc(N(C)C)nc3)nc(NC3CCN(Cc4ccccc4)CC3)c2cc1OC 2.39 µM

----------
- System: UO-31 renal
- Assay comment: NCI tumour cell line growth inhibition, 48 h
// values below are reported TGI

Examples from the recorded data:
Compound	Assay readout	Reported measurement
COc1cc2cc(C(=O)N3CC(CCl)c4c3cc([N+](=O)[O-])c3ccccc43)[nH]c2c(OC)c1OC (centres undefined)	TGI	> 100 µM
COc1ccc2c(c1)c(-c1ccc(-c3cn(S(=O)(=O)c4ccccc4)c4ccc(OC)cc34)s1)cn2S(=O)(=O)c1ccccc1	TGI	> 100 µM
Cc1cc(NS(=O)(=O)c2ccc(N=Nc3cc(N=Nc4ccc(S(=O)(=O)Nc5cc(C)nc(C)n5)cc4)c4c(NC(=O)C(Cl)Cl)cccc4c3OC(=O)C(Cl)Cl)cc2)nc(C)n1 (tested in a mixture with another compound)	TGI	37.4 µM
COc1cc(OC)cc(Oc2nc3ccccc3nc2C(=O)O)c1	TGI	> 100 µM

What value of TGI has been recorded for this entry: Oc1ccccc1-c1nn(CNc2cccc(Cl)c2)c(=S)o1 > 100 µM

Consider next the compound CCN1CCC(O)(c2ccc(C)cc2)C(C(=O)c2ccc(C)cc2)C1 (centres undefined) in the same way. > 57.5 µM

Consider next the compound COC(=O)/C=C/c1ccc2c(c1)CCC2 in the same way. > 100 µM

Consider next the compound CC(=O)OC1CCN(C(=O)c2ccccc2)CC1CC1(c2cc3ccccc3[nH]2)OCCO1 (centres undefined) in the same way. > 100 µM

Consider next the compound Cc1nc2c(n1CCO)C(=O)c1ccccc1C2=O in the same way. > 100 µM

Consider next the compound CC1Cc2c(Br)nc(N)nc2NC1=O (centres undefined) in the same way. > 100 µM

Consider next the compound C[n+]1c(/C=C\c2ccc(Cl)cc2)ccc2ccccc21 in the same way. > 100 µM

Consider next the compound O=[N+]([O-])C(Cl)C(Cl)C(Cl)=C(Cl)Cl (centres undefined) in the same way. > 31.6 µM

Consider next the compound COC(=O)c1ccc(OCc2ccc3nc(OC)c(OC)nc3c2)cc1 in the same way. > 100 µM

Consider next the compound O=C(O)C(CP(=O)(O)O)=C(Cl)Cl in the same way. > 100 µM

Origin of the recorded values: PubChem BioAssay (NCI)
